- target: UniProtKB Q16832
- Sequence (Q16832 22-855): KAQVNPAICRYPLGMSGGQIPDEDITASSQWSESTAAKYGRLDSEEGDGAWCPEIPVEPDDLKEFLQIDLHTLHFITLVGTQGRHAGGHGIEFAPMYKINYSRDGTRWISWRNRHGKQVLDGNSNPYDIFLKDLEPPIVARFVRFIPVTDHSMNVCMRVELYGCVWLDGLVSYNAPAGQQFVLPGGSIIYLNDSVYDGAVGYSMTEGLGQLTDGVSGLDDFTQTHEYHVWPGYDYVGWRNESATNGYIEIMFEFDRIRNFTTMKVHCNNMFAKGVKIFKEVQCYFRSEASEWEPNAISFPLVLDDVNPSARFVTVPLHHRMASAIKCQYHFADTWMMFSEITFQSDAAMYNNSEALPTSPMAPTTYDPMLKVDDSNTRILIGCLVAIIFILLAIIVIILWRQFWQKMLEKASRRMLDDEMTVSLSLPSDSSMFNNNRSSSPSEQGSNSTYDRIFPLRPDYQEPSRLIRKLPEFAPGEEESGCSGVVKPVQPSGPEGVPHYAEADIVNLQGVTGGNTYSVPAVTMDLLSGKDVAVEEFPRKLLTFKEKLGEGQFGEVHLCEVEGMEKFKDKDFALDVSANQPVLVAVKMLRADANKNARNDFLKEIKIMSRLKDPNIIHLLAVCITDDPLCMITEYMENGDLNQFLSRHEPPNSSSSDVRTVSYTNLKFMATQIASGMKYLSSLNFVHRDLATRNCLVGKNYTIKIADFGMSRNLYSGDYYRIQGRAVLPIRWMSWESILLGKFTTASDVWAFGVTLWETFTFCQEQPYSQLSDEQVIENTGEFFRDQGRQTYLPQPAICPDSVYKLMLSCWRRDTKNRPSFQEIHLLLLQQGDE
- procedureDetails: LanthaScreen Eu kinase activity assay, DDR2
- Type: biochemical
- runConditions: 100 nM ATP; cells printed in μM
quantityKind: IC50 (µM)
Numbers only, in µM.

Here is how some molecules turned out for IC50.
molecule: CC1CN(c2cncnc2)Cc2cc(C(=O)Nc3cc(CN4CCSCC4)cc(C(F)(F)F)c3)ccc21 (stereo not drawn)
quantityKind: IC50
scaleUnit: µM
reported: 3.7
--
molecule: CC1CN(c2cncnc2)Cc2cc(C(=O)Nc3cc(CN4CCN(C)CC4)cc(C4CC4)c3)ccc21 (stereo not drawn)
quantityKind: IC50
scaleUnit: µM
reported: 1.1
--
molecule: CC1CN(c2cncnc2)Cc2cc(C(=O)Nc3cc(CN4CCN(C)CC4)cc(-c4ccccc4)c3)ccc21 (stereo not drawn)
quantityKind: IC50
scaleUnit: µM
reported: 1.4
--
molecule: Cc1c(CN2CCN(C)CC2)cc(NC(=O)c2ccc3c(c2)CN(c2cncnc2)CC3C)cc1C(F)(F)F (stereo not drawn)
quantityKind: IC50
scaleUnit: µM
reported: 1.1
--
molecule: CN1CCN(Cc2cc(C(=O)Nc3ccc4c(c3)CN(c3cncnc3)CC4)cc(C(F)(F)F)c2)CC1
quantityKind: IC50
scaleUnit: µM
reported: 7.8

Required: IC50, one value per molecule below.
1. CCC1CN(c2cncnc2)Cc2cc(C(=O)Nc3cc(CN4CCN(C)CC4)cc(C(F)(F)F)c3)ccc21 (stereo not drawn)
2. CC1CN(c2cncnc2)Cc2cc(C(=O)Nc3cc(CN4CCCC4)cc(C(F)(F)F)c3)ccc21 (stereo not drawn)
3. CC1CN(c2cccnc2)Cc2cc(C(=O)Nc3cc(CN4CCN(C)CC4)cc(C(F)(F)F)c3)ccc21 (stereo not drawn)
4. CN1CCN(Cc2cc(NC(=O)c3ccc4c(c3)CN(c3cccnc3)CC4)cc(C(F)(F)F)c2)CC1

Reply:
1: 2; 2: 2.3; 3: 1.2; 4: 4.3
